From: ChEMBL document CHEMBL1146097

Cytochrome P450 2D6 (Homo sapiens, UniProt P10635): recorded IC50 for assorted compounds
Sequence (P10635 whole entry): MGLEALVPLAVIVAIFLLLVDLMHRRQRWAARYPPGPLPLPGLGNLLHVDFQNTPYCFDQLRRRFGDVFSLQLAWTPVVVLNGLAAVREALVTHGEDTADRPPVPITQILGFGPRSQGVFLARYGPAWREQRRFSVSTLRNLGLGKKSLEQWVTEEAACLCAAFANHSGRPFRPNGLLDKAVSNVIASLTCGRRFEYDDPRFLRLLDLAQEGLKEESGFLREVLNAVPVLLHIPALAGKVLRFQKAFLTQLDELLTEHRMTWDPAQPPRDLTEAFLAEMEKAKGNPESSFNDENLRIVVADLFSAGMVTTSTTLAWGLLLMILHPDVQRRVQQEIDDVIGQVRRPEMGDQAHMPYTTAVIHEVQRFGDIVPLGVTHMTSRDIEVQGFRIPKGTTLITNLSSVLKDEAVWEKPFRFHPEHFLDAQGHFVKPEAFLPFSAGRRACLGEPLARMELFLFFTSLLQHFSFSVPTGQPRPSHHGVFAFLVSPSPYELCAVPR

{"columns": ["compound", "valueModifier", "IC50 / µM"],
 "data": [
  ["C[N+]1(C)C2CCC1CC(OC1c3ccccc3C=Cc3ccccc31)C2 (centres undefined)", "=", 60],
  ["C(=C1c2ccccc2CCc2ccccc21)c1ccccc1", ">", 200],
  ["c1ccc(CCNCCC2c3ccccc3Sc3ccccc32)cc1", "=", 0.26],
  ["COc1ccc2c(c1)[C@]13CCCC[C@@H]1[C@H](C2)N(C)CC3", "=", 3.4]
]}

====

Cytochrome P450 2D6 (Homo sapiens, UniProt P10635): recorded log10(IC50) for assorted molecules
measuredParameter: log10(IC50) (log10 of the value in µM)

{"columns": ["molecule", "recordedResult"],
 "data": [
  ["Cn1ccnc1C(O)C=C(c1ccccc1)c1ccccc1 (stereo unspecified)", 1.18],
  ["Cc1ccc2c(c1)C(n1cccc1)c1cccnc1CC2 (stereo unspecified)", 1.60],
  ["CC(Cc1ccccc1)NC1CC2c3ccccc3CCc3cccc1c32 (stereo unspecified)", -0.82],
  ["Fc1ccc(C(OCCN2CCC(CCCc3ccccc3)CC2)c2ccc(F)cc2)cc1", 0.08],
  ["CCC(c1ccccc1)c1c(O)c2ccccc2oc1=O (stereo unspecified)", 2.72],
  ["Nc1ccccc1-c1nc(N)c2ccccc2n1", 2.23]
]}
